System: gene editing with dCas9
run description: Screen of 322 new SSAP proteins, gene editing activity with dCas9 (Table 5)
Assay type: cell-based
condition summary: normalized
In this section, each of the molecules is paired with its reported dCas9 with SSAP activity (normalized).
property name: dCas9 with SSAP activity (normalized)

INSERT INTO results (molecule, property_name, reading) VALUES
  ('SSAP_9: SEQ ID NO: 178; Bet Gammaproteobacteria (protein, Gammaproteobacteria, Bet Gammaproteobacteria) EKPKLIQRFAERFSVDPNKLFDTLKATAFKQRDGSAPTNEQMMALLVVADQYGLNPFTKEIFAFPDKQAGIIPVVGVDGWSRIINQHDQFDGMEFKTSENKVSLDGAKECPEWMECIIYRRDRSHPVKITEYLDEVYRPPFEGNGKNGPYRVDGPWQTHTKRMLRHKSMIQCSRIAFGFVGIFDQDEAERIIEGQATHVVEPSVIPPEQVDDRTRGLVYKLIERAEASNAWNSALEYANEHFQGVELTFAKQEIFNAQQQAAKALTQPLAS', 'dCas9 with SSAP activity (normalized)', '−1.126'),
  ('SSAP_74: SEQ ID NO: 243 (protein) SNPPLAQADLQKTQGTEVKTKTKDQQLIHFINQPSMKAQLAAALPRHMTPDRMIRIVTTEIRKTPALANCDMQSFIGAVVQCSQLGLEPGNALGHAYLLPFGNGKAKSGQSNVQLIIGYRGMIDLARRSNQIISISARTVRQGDSFHFEYGLNENLTHVPGENEDSPITHVYAVARLKDGGVQFEVMTHNQIEKVRASSKAGQNGPWVSHWEEMAKKTVIRRLFKYLPVSIEMQKAVILDEKAEANVDQENASVFEGEFEEVSQSA', 'dCas9 with SSAP activity (normalized)', 0.984);
